B1: TPR 5TU (parent)
chain: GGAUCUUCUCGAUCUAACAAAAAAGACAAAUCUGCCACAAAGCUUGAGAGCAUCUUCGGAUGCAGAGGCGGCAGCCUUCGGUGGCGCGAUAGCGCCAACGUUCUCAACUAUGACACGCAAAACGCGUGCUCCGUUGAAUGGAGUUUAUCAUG

# Variants of: B1
# PROCEDURE_DETAILS: polymerase ribozyme fitness, log enrichment relative to wild type (log ratio); higher = more active; in vitro selection for triplet polymerase activity
Fewer inactive variants are shown than the library holds.
VALUE_TYPE: polymerase ribozyme fitness (log ratio)

# polymerase ribozyme fitness (log ratio) lookup, item A24U A52G C79G G94A A107G
≤ -4.2

And the next one, C32A G65A G88A C118U A120C A142G U144C ?
≤ -4.2

And the next one, G80A C96G ?
-1.11

And the next one, A52G G92A ?
-3.13

And the next one, A19C G94C U102G ?
≤ -4.2

And the next one, G42U G80A U104C ?
≤ -4.2

And the next one, C27G G141U ?
-4.04
